# Tested on: Oryza sativa, (L.) Tebonnet
# Measurement Description: Rice tolerance to post-transplant applications under flooded paddy conditions (Example 187), ORYSAT (Rice, Tebonnet)
# Assay Setup: Rate 0.1250 kg/ha, rated three to four weeks after treatment
Readout: ORYSAT herbicidal effect rating
// no unit, no text: just the number

The cases that follow already have their ORYSAT herbicidal effect rating on record.
# return recorded ORYSAT herbicidal effect rating for input Cn1c(C(F)(F)F)cc(=O)n(-c2ccc3snc(C(C)(C)C#N)c3c2)c1=O [Example 256]
8.0

# return recorded ORYSAT herbicidal effect rating for input CCOc1ccc2sc(S(=O)(=O)NC(=O)COc3ccc(C)cc3-c3nsc4ccc(-n5c(=O)cc(C(F)(F)F)n(C)c5=O)cc34)nc2c1 [Example 289]
0.0

# return recorded ORYSAT herbicidal effect rating for input Cc1ccc(OCC(=O)NS(=O)(=O)c2sc3ccc(Cl)cc3c2C)c(-c2nsc3ccc(-n4c(=O)cc(C(F)(F)F)n(C)c4=O)cc23)c1 [Example 290]
0.0

# return recorded ORYSAT herbicidal effect rating for input Cc1nsc2ccc(-n3c(=O)c(Cl)c(C(F)(F)F)n(C)c3=O)cc12 [Example 271]
2.0

# return recorded ORYSAT herbicidal effect rating for input COC(=O)C(C)Oc1c(-c2nsc3ccc(-n4c(=O)cc(C(F)(F)F)n(C)c4=O)cc23)ccc(C)c1C (stereo not shown) [Example 275]
3.0

More entries:
# return recorded ORYSAT herbicidal effect rating for input Cn1c(C(F)(F)F)cc(=O)n(-c2ccc3snc(/C=N/O)c3c2)c1=O [Example 278]
4.0

# return recorded ORYSAT herbicidal effect rating for input Cc1ccc(OCC(=O)NS(=O)(=O)c2c(C)noc2C)c(-c2nsc3ccc(-n4c(=O)cc(C(F)(F)F)n(C)c4=O)cc23)c1 [Example 270]
7.0

---

Overview of reported herbicidal effect rating ORYSAT across a group of molecules:
# Test system: Oryza sativa, (L.) Tebonnet
# Measurement Description: Rice tolerance to post-transplant applications under flooded paddy conditions (Example 187), ORYSAT (Rice, Tebonnet); as to herbicidal effect rating ORYSAT: meaning of each grade not given here
# Assay Setup: Rate 0.0620 kg/ha, rated 3-4 weeks after treatment
// no unit, no text: just the number

The cases that follow already have their herbicidal effect rating ORYSAT on record.
# return recorded herbicidal effect rating ORYSAT for input CNC(=O)COc1ccc(C)cc1-c1nsc2ccc(-n3c(=O)cc(C(F)(F)F)n(C)c3=O)cc12
4.0

# return recorded herbicidal effect rating ORYSAT for input C=CS(=O)(=O)NC(=O)COc1ccccc1-c1nsc2ccc(-n3c(=O)cc(C(F)(F)F)n(C)c3=O)cc12
8.0

# return recorded herbicidal effect rating ORYSAT for input CC=CCOC(=O)C(C)(C)Oc1ccc(C)cc1-c1nsc2ccc(-n3c(=O)cc(C(F)(F)F)n(C)c3=O)cc12
0.0

Please look at the following molecule next.
# return recorded herbicidal effect rating ORYSAT for input C#CCOC(=O)C(C)(C)Oc1ccc(C)cc1-c1nsc2ccc(-n3c(=O)cc(C(F)(F)F)n(C)c3=O)cc12
3.5

---

# Tested on: Monochoria vaginalis, Presl.
# Measurement Description: Preemergence weed control under flooded paddy conditions, MOOVA (Monochoria); also: meaning of each grade not given here
# Assay type: in vivo
# Assay Setup: Rate 0.0320 kg/ha; preemergence weeds, flooded paddy; rated three to four weeks after treatment
Readout: herbicidal effect rating, MOOVA
// no unit, no text: just the number

The cases that follow already have their herbicidal effect rating, MOOVA on record.
# return recorded herbicidal effect rating, MOOVA for input Cn1c(C(F)(F)F)cc(=O)n(-c2ccc3snc(CN(C(=O)OC(C)(C)C)S(C)(=O)=O)c3c2)c1=O [Example 304]
0.0

# return recorded herbicidal effect rating, MOOVA for input Cn1c(C(F)(F)F)cc(=O)n(-c2ccc3snc(CN=C=S)c3c2)c1=O [Example 311]
0.0

# return recorded herbicidal effect rating, MOOVA for input Cn1c(C(F)(F)F)cc(=O)n(-c2ccc3snc(C(N)=O)c3c2)c1=O [Example 322]
5.0

# return recorded herbicidal effect rating, MOOVA for input Cn1c(C(F)(F)F)cc(=O)n(-c2ccc3snc(C(=O)Oc4ccc(F)cc4)c3c2)c1=O [Example 320]
0.0

# return recorded herbicidal effect rating, MOOVA for input Cn1c(C(F)(F)F)cc(=O)n(-c2ccc3snc(C(=O)NS(=O)(=O)CCl)c3c2)c1=O [Example 324]
9.0

More entries:
# return recorded herbicidal effect rating, MOOVA for input CC(C)NC(=O)c1nsc2ccc(-n3c(=O)cc(C(F)(F)F)n(C)c3=O)cc12 [Example 330]
9.0

# return recorded herbicidal effect rating, MOOVA for input Cn1c(C(F)(F)F)cc(=O)n(-c2ccc3snc(-c4ccccc4OCC(=O)O)c3c2)c1=O [Example 312]
4.5

# return recorded herbicidal effect rating, MOOVA for input CC(OS(C)(=O)=O)c1nsc2ccc(-n3c(=O)cc(C(F)(F)F)n(C)c3=O)cc12 (centres unmarked) [Example 309]
6.0

---

# Test system: Monochoria vaginalis, Presl.
# Measurement Description: Postemergence weed control under flooded paddy conditions, MOOVA (Monochoria)
# Type: in vivo
# Assay Setup: Rate 0.0313 kg/ha, rated three to four weeks after treatment
Overview of reported herbicidal effect rating, MOOVA across a group of compounds:

The cases that follow already have their herbicidal effect rating, MOOVA on record.
# return recorded herbicidal effect rating, MOOVA for input Cn1c(C(F)(F)F)cc(=O)n(-c2ccc3snc(-c4ccccc4)c3c2)c1=O
8.0

# return recorded herbicidal effect rating, MOOVA for input COC(=O)COc1cc(C)c(C)cc1-c1nsc2ccc(-n3c(=O)cc(C(F)(F)F)n(C)c3=O)cc12
9.0

# return recorded herbicidal effect rating, MOOVA for input COC(=O)C(C)Oc1ccc(C)cc1-c1nsc2ccc(-n3c(=O)cc(C(F)(F)F)n(C)c3=O)cc12 (stereo not shown)
9.0

Please look at the following compound next.
# return recorded herbicidal effect rating, MOOVA for input COc1cc(C)ccc1-c1nsc2ccc(-n3c(=O)cc(C(F)(F)F)n(C)c3=O)cc12
9.0

---

Overview of reported SAGPY across a group of compounds:
# System: Sagittaria pygmaea, L.
# Measurement Description: Preemergence weed control under flooded paddy conditions, SAGPY (Arrowhead (Pygmaea))
# Type: in vivo
# Assay Setup: 0.2500 kg/ha; preemergence weeds, flooded paddy; herbicidal effect rating 0-9, three to four weeks after treatment
// no unit, no text: just the number

# return recorded SAGPY for input COC(=O)CN(C(=O)c1nsc2ccc(-n3c(=O)cc(C(F)(F)F)n(C)c3=O)cc12)S(=O)(=O)Cc1ccccc1 [Example 441]
6.0

# return recorded SAGPY for input Cn1c(C(F)(F)F)cc(=O)n(-c2ccc3snc(C(=O)c4ccccc4)c3c2)c1=O [Example 449]
6.0

More entries:
# return recorded SAGPY for input COC(=O)COc1cc2c(cc1-c1nsc3ccc(-n4c(=O)cc(C(F)(F)F)n(C)c4=O)cc13)CCC2 [Example 434]
6.0

# return recorded SAGPY for input COc1ccc(I)cc1-c1nsc2ccc(-n3c(=O)cc(C(F)(F)F)n(C)c3=O)cc12 [Example 448]
3.5

# return recorded SAGPY for input COC(=O)COc1ccc(I)cc1-c1nsc2ccc(-n3c(=O)cc(C(F)(F)F)n(C)c3=O)cc12 [Example 459]
0.0

# return recorded SAGPY for input CCSC(=O)c1nsc2ccc(-n3c(=O)cc(C(F)(F)F)n(C)c3=O)cc12 [Example 422]
6.0

# return recorded SAGPY for input Cn1c(C(F)(F)F)cc(=O)n(-c2ccc3snc(C4(C#N)CC4)c3c2)c1=O [Example 446]
9.0

# return recorded SAGPY for input CCOC(=O)c1nsc2cc(F)c(-n3c(=O)cc(C(F)(F)F)n(C)c3=O)cc12 [Example 423]
9.0

---

# Tested on: Sagittaria pygmaea, L.
# Measurement Description: Preemergence weed control under flooded paddy conditions, SAGPY (Arrowhead (Pygmaea))
# Format: in vivo
# Assay Setup: 0.2500 kg/ha; preemergence weeds, flooded paddy; herbicidal effect rating 0-9, three to four weeks after treatment
Overview of reported SAGPY across a group of compounds:
// no unit, no text: just the number

The cases that follow already have their SAGPY on record.
// output SAGPY; input Cn1c(C(F)(F)F)cc(=O)n(-c2ccc3snc(COC(=O)Cc4cccs4)c3c2)c1=O [Example 451] ; system Sagittaria pygmaea, L.
9.0

// output SAGPY; input CN(Cc1ccc(Cl)cc1)S(=O)(=O)NC(=O)c1nsc2ccc(-n3c(=O)cc(C(F)(F)F)n(C)c3=O)cc12 [Example 420] ; system Sagittaria pygmaea, L.
3.0

// output SAGPY; input Cn1c(C(F)(F)F)cc(=O)n(-c2ccc3snc(/C=N/Nc4ccccc4)c3c2)c1=O [Example 408] ; system Sagittaria pygmaea, L.
6.0

More entries:
// output SAGPY; input Cn1c(C(F)(F)F)cc(=O)n(-c2ccc3snc(C(=O)C(C)(C)C)c3c2)c1=O [Example 432] ; system Sagittaria pygmaea, L.
8.5
